From: paper PMC3227622

- Test system: SVCT-2 cells
- protocol-text: SRB cell growth assay, SVCT-2 (rat GnRH receptor transfected)
- Format: cell-based, human
- recorded-conditions: Homo sapiens; co-treatment with 100 nM Triptorelin; SRB; read-out: apparent IC50 growth inhibition
endpoint: IC50

[ask] Please report the recorded IC50 for COc1ccc(Cl)cc1NC(=O)Nc1cc(C)nc2ccccc12 [IGF-IR inhibitor II] .
[reply] ~9 µM

* * *

- Test system: SVCT-2 cells
- protocol-text: SRB cell growth assay, SVCT-2 (rat GnRH receptor transfected)
- Assay type: cell-based, human
- recorded-conditions: Homo sapiens, 96 h; without co-treatment; 4 days; SRB; read-out: IC50 growth inhibition
pIC50: −log10 of the molar value.
endpoint: pIC50

sample-smiles	pIC50
COc1ccc(Cl)cc1NC(=O)Nc1cc(C)nc2ccccc12	~4.96

Switching to the query record.
[ask] Please report the recorded pIC50 for COc1cc2ncnc(Nc3ccc(OCc4ccccc4)cc3)c2cc1OC .
[reply] ~5.70
